Counter-ions that a name gives are not always drawn.
Reported melting point values for a set of compounds

// query Tell me the measured melting point of CCOc1cc2c(cc1OC)C(c1ccc(C(=O)NC(=N)N(CC)CC)cc1)=NC1CCN(C)CC21 (centres unmarked) (as salt: hydrochloride) [Compound 2, dihydrochloride] , please.
// result 194 to 203 °C

// query Tell me the measured melting point of CCOc1cc2c(cc1OC)C(c1ccc(C(=O)NC(=NC)N(C)C)cc1)=N[C@H]1CCN(C)C[C@@H]21.Cl (relative stereo) , please.
// result 143 to 150 °C

// query Tell me the measured melting point of "COc1cc2c(cc1OC)[C@@H]1CN(C)CC[C@@H]1N=C2c1ccc(C(=O)N=C(N(C)C)N(C)C)cc1.Cl" , please.
// result 161 to 166 °C

// query Tell me the measured melting point of CCOc1cc2c(cc1OC)C(c1ccc(C(=O)NC(=N)N3CCCC3)cc1)=N[C@H]1CCN(C)C[C@@H]21 (relative stereo) , please.
// result 145 to 152 °C

The record that follows has no melting point shown yet.
// query Tell me the measured melting point of CCOc1cc2c(cc1OC)C(c1ccc(C(=O)NC(=N)N3CCOCC3)cc1)=NC1CCN(C)CC21 (centres unmarked) (as salt: hydrochloride) [Compound 1, dihydrochloride] , please.
// result 208 to 218 °C

* * *

ASSAYED_TARGET: PDE4 (cAMP-specific)
TEST_PROTOCOL: Inhibition of PDE isoenzymes: PDE4
Type: biochemical
EXPERIMENTAL_CONDITIONS: cytosol of human polymorphonuclear leukocytes (PMNL), cAMP as substrate, motapizone 1 μM
Counter-ions that a name gives are not always drawn.
Tag: yes if measured PDE4 [-log IC50, mol/l] is not below 8, no if it is.

Please review the following examples before continuing.
// query Item CCOc1cc2c(cc1OC)C(c1ccc(C(=O)NC(=N)N)cc1)=N[C@H]1CCN(C)C[C@@H]21 (relative stereo) with PDE4 [-log IC50, mol/l] of 8 or above?
// result yes

// query Item CCOc1cc2c(cc1OC)C(c1ccc(C(=O)NC(=N)N(C)C)cc1)=NC1CCN(C)CC21 (stereo not shown) [Compound 3, dihydrochloride] with PDE4 [-log IC50, mol/l] of 8 or above?
// result yes

// query Item CCOc1cc2c(cc1OC)C(c1ccc(C(=O)NC(=N)N(C)C)cc1)=NC1CC[N+](C)([O-])CC21 (single isomer, unassigned) with PDE4 [-log IC50, mol/l] of 8 or above?
// result no

// query Item CCOc1cc2c(cc1OC)C(c1ccc(C(=O)NC(=N)N3CCCC3)cc1)=N[C@H]1CCN(C)C[C@@H]21 (relative stereo) with PDE4 [-log IC50, mol/l] of 8 or above?
// result yes

New cases:
// query Item CCOc1cc2c(cc1OC)C(c1ccc(C(=O)N=C(N)N3CCN(C)CC3)cc1)=NC1CCN(C)CC21 (stereo not shown) [Compound 6, dihydrochloride] with PDE4 [-log IC50, mol/l] of 8 or above?
// result yes

// query Item CCOc1cc2c(cc1OC)C(c1ccc(C(=O)N=C(N(C)C)N(C)C)cc1)=NC1CCN(C)CC21 (single isomer, unassigned) [Compound 5, hydrochloride] with PDE4 [-log IC50, mol/l] of 8 or above?
// result yes

* * *

ASSAYED_TARGET: PDE3 (cGMP-inhibited) (Homo sapiens)
Construct: investigated in homogenates of human platelets; from tissue; host or cells: homogenates of human platelets
Sequence (Q14432 whole entry): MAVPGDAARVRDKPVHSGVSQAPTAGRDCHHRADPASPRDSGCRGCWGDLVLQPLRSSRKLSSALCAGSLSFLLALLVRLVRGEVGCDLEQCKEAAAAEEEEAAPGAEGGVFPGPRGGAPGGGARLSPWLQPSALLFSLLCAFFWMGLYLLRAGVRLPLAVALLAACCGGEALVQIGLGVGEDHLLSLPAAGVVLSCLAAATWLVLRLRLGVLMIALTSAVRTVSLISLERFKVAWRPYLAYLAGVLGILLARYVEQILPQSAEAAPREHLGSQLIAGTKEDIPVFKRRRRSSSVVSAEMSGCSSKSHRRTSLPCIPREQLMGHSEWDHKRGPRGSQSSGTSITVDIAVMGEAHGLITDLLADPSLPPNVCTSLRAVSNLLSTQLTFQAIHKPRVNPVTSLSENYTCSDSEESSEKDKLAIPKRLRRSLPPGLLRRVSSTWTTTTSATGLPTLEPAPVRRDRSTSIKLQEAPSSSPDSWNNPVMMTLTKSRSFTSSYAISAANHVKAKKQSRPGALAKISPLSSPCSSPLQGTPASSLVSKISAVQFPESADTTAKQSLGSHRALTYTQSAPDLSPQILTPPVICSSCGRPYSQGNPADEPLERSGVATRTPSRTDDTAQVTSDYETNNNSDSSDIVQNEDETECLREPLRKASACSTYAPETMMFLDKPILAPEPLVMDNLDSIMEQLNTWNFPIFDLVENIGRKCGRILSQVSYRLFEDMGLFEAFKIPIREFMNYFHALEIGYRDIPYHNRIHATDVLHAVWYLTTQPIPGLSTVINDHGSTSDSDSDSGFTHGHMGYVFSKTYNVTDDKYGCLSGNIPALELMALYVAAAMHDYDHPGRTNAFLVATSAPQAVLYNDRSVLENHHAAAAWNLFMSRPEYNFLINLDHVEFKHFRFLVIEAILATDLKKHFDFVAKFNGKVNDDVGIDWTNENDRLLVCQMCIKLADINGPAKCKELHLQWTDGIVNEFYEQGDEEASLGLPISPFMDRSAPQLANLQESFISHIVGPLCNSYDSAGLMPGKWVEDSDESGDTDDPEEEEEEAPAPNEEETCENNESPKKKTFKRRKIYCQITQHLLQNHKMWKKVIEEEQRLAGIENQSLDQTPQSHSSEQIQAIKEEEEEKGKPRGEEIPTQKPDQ
TEST_PROTOCOL: Inhibition of PDE isoenzymes: PDE3
Assay type: biochemical
EXPERIMENTAL_CONDITIONS: homogenates of human platelets, cAMP or cGMP as substrate; read-out: PDE3 [-log IC50, mol/l] (converted)
Counter-ions that a name gives are not always drawn.
Binarize IC50 at 600 nM; below is class 1, at or above is class 0.

Please review the following examples before continuing.
// query Lab log: compare recorded IC50 with 600 nM; is it strictly lower for CCOc1cc2c(cc1OC)C(c1ccc(C(=O)NC(=N)N(C)C)cc1)=NC1CC[N+](C)([O-])CC21 (single isomer, unassigned) [Compound 22] ?
// result class 0

// query Lab log: compare recorded IC50 with 600 nM; is it strictly lower for CCOc1cc2c(cc1OC)C(c1ccc(C(=O)NC(=N)NC)cc1)=N[C@H]1CCN(C)C[C@@H]21 (relative stereo) [Compound 14] ?
// result class 1

// query Lab log: compare recorded IC50 with 600 nM; is it strictly lower for CCOc1cc2c(cc1OC)C(c1ccc(C(=O)NC(=NC)N(C)C)cc1)=N[C@H]1CCN(C)C[C@@H]21.Cl (relative stereo) [Compound 13, hydrochloride] ?
// result class 1

// query Lab log: compare recorded IC50 with 600 nM; is it strictly lower for CCCNC(=N)NC(=O)c1ccc(C2=N[C@H]3CCN(C)C[C@H]3c3cc(OCC)c(OC)cc32)cc1 (relative stereo) [Compound 16] ?
// result class 1

// query Lab log: compare recorded IC50 with 600 nM; is it strictly lower for CCOc1cc2c(cc1OC)C(c1ccc(C(=O)NC(=N)N3CCCC3)cc1)=N[C@H]1CCN(C)C[C@@H]21 (relative stereo) [Compound 11] ?
// result class 1

Then this molecule:
// query Lab log: compare recorded IC50 with 600 nM; is it strictly lower for CCOc1cc2c(cc1OC)C(c1ccc(C(=O)NC(=N)N(C)CCO)cc1)=NC1CCN(C)CC21 (stereo not drawn) [Compound 4, dihydrochloride] ?
// result class 0

* * *

ASSAYED_TARGET: PDE4 (cAMP-specific)
TEST_PROTOCOL: Inhibition of PDE isoenzymes: PDE4
Type: biochemical
EXPERIMENTAL_CONDITIONS: cytosol of human polymorphonuclear leukocytes (PMNL), cAMP as substrate, motapizone 1 μM
Structures can show the parent of a compound that is named as a salt.
VALUE_KIND: PDE4 [-log IC50, mol/l]
Field format: numeric only.

// query Tell me the measured PDE4 [-log IC50, mol/l] of CCCNC(=N)NC(=O)c1ccc(C2=N[C@H]3CCN(C)C[C@H]3c3cc(OCC)c(OC)cc32)cc1 (relative stereo) , please.
// result 9.65

// query Tell me the measured PDE4 [-log IC50, mol/l] of CCOc1cc2c(cc1OC)C(c1ccc(C(=O)NC(=N)N3CCOCC3)cc1)=NC1CCN(C)CC21 (stereo not drawn) [Compound 1, dihydrochloride] , please.
// result 9.22

New cases:
// query Tell me the measured PDE4 [-log IC50, mol/l] of CCOc1cc2c(cc1OC)C(c1ccc(C(=O)NC(=N)NC3CCCCC3)cc1)=N[C@H]1CCN(C)C[C@@H]21 (relative stereo) , please.
// result 9.50

// query Tell me the measured PDE4 [-log IC50, mol/l] of CCCCNC(=N)NC(=O)c1ccc(C2=N[C@H]3CCN(C)C[C@H]3c3cc(OCC)c(OC)cc32)cc1 (relative stereo) , please.
// result 9.49

// query Tell me the measured PDE4 [-log IC50, mol/l] of CCOc1cc2c(cc1OC)C(c1ccc(C(=O)NC(=N)NC(C)C)cc1)=N[C@H]1CCN(C)C[C@@H]21 (relative stereo) , please.
// result 9.11

// query Tell me the measured PDE4 [-log IC50, mol/l] of CCOc1cc2c(cc1OC)C(c1ccc(C(=O)NC(=N)NCC(C)C)cc1)=N[C@H]1CCN(C)C[C@@H]21 (relative stereo) , please.
// result 9.34

* * *

ASSAYED_TARGET: PDE4 (cAMP-specific)
TEST_PROTOCOL: Inhibition of PDE isoenzymes: PDE4
Assay type: biochemical
EXPERIMENTAL_CONDITIONS: cytosol of human polymorphonuclear leukocytes (PMNL), cAMP as substrate, motapizone 1 μM
Structures can show the parent of a compound that is named as a salt.
VALUE_KIND: PDE4 [-log IC50, mol/l]

Recorded PDE4 [-log IC50, mol/l], per entry:
// query Tell me the measured PDE4 [-log IC50, mol/l] of CCOc1cc2c(cc1OC)C(c1ccc(C(=O)NC(=N)NCC3CCCCC3)cc1)=N[C@H]1CCN(C)C[C@@H]21 (relative stereo) [Compound 20] , please.
// result 9.65

// query Tell me the measured PDE4 [-log IC50, mol/l] of CCOc1cc2c(cc1OC)C(c1ccc(C(=O)NC(=N)N(CC)CC)cc1)=NC1CCN(C)CC21 (stereo not drawn) [Compound 2, dihydrochloride] , please.
// result 9.77

// query Tell me the measured PDE4 [-log IC50, mol/l] of CCOc1cc2c(cc1OC)C(c1ccc(C(=O)NC(=N)NC)cc1)=N[C@H]1CCN(C)C[C@@H]21 (relative stereo) [Compound 14] , please.
// result 8.82

// query Tell me the measured PDE4 [-log IC50, mol/l] of CCOc1cc2c(cc1OC)C(c1ccc(C(=O)NC(=NC)N(C)C)cc1)=N[C@H]1CCN(C)C[C@@H]21.Cl (relative stereo) [Compound 13] , please.
// result 9.34

// query Tell me the measured PDE4 [-log IC50, mol/l] of CCNC(=N)NC(=O)c1ccc(C2=N[C@H]3CCN(C)C[C@H]3c3cc(OCC)c(OC)cc32)cc1 (relative stereo) [Compound 18] , please.
// result 8.76

New cases:
// query Tell me the measured PDE4 [-log IC50, mol/l] of CCOc1cc2c(cc1OC)C(c1ccc(C(=O)NC(=N)N(C)CCO)cc1)=NC1CCN(C)CC21 (stereo not drawn) [Compound 4, dihydrochloride] , please.
// result 8.34
